FYI, the data here is from patent US8426447B2.

Measured On: BACE1 (Homo sapiens)
Sequence (P56817 46-501, species assumed): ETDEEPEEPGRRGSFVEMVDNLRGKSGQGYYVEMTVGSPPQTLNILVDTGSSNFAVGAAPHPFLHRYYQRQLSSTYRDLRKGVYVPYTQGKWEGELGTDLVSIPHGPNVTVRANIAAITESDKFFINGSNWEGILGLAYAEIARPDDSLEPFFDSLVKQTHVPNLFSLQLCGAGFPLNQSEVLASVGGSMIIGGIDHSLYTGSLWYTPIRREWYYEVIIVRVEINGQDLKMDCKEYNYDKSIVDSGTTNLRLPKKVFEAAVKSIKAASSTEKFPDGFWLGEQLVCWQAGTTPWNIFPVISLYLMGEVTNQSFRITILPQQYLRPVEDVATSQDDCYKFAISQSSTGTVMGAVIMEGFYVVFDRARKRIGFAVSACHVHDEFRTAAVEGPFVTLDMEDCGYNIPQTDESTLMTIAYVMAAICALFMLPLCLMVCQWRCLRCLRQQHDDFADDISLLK
Protocol Description: In Vitro BACE Cell-based Assay (HEK cell assay): Aβ40 in conditioned medium of cells stably expressing Amyloid Precursor Protein, sandwich ELISA
Test Conditions: HEK cell-based assay, Aβ40 in conditioned medium, IC50 class symbols; read-out: HEK cell assay
pIC50: −log10 of the molar value.
Consider the following compounds and their measured pIC50 readings.

Example results:
Consider the compound shown here: NC1=N[C@@]2(CO1)c1cc(-c3cc(Cl)ccc3F)ccc1Oc1ncc(C3CCOCC3)cc12 [compound 404] What is its recorded pIC50?
> 7.00

Looking for the measured pIC50 of COc1ccc2c(c1)[C@]1(COC(N)=N1)c1cc(NC(=O)COc3ccccc3)ccc1O2 [compound 374] , can you help?
5.30 to 6.00

// returns reported pIC50 for input NC1=N[C@@]2(CO1)c1cc(-c3cccnc3)ccc1Oc1cnc(N3CCN(CC(=O)O)CC3)cc12 [compound 396]
6.00 to 7.00

Any idea what pIC50 was measured for CCOC(C)(C)C#Cc1cnc2c(c1)[C@]1(COC(N)=N1)c1cc(-c3cccnc3)ccc1O2 [compound 347] ?
> 7.00

Which pIC50 is listed for NC1=N[C@@]2(CO1)c1cc(-c3cccnc3)ccc1Oc1c(F)cc(OCC3CCOCC3)cc12 [compound 418] ?
> 7.00

Could you share which pIC50 value was measured for COC(C)(C)COc1cnc2c(c1)[C@]1(COC(N)=N1)c1cc(-c3ccccc3)ccc1O2 [compound 350] ?
> 7.00

Others:
Find the recorded pIC50 belonging to CC(C)(C)/C=C/c1ccc2c(n1)[C@]1(COC(N)=N1)c1cc(-c3cccnc3)ccc1O2 [compound 398] and report it.
> 7.00

----------
Measured On: BACE1 (Homo sapiens)
Protocol Description: In Vitro Enzymatic BACE FRET (Fluorescence Resonance Energy Transfer) Assay
Type: biochemical
Test Conditions: in vitro BACE FRET enzyme assay, IC50 class symbols; read-out: BACE1 FRET assay
pIC50: −log10 of the molar value.
Observation Type: pIC50

See these solved cases before continuing.
# get_value(readout='pIC50', item= Cc1cncc(-c2ccc3c(c2)[C@@]2(COC(N)=N2)c2cc(-c4ccnc(C)c4)ncc2O3)c1 [compound 307] )
> 7.00

Return reported pIC50; argument: NC1=N[C@@]2(CO1)c1cc(-c3cccnc3F)ccc1Oc1cnc(-c3ccc(F)nc3)cc12 [compound 312]
> 7.00

Would you kindly share the measured pIC50 for COCC(=O)Nc1ccc2c(c1)[C@@]1(COC(N)=N1)c1cc(OCC(C)(C)C)ccc1O2 [compound 375] ?
> 7.00

Looking for the measured pIC50 of COCC[C@H]1CN(c2ccc3c(c2)[C@]2(COC(N)=N2)c2cc(-c4cccnc4)ccc2O3)CCO1 [compound 361] , can you help?
6.00 to 7.00

Which pIC50 is listed for NC1=N[C@@]2(CO1)c1cc(-c3cccnc3N3CCOCC3)ccc1Oc1cnc(Cl)cc12 [compound 337] ?
5.30 to 6.00

Using the record for NC1=N[C@@]2(CO1)c1cc(-c3ccc(F)nc3)ccc1Oc1cnc(-c3ccnc(F)c3)cc12 [compound 311] , report its pIC50.
> 7.00

New cases:
Can you share its pIC50? I mean this compound: NC1=N[C@@]2(CO1)c1cc(-c3c(F)ccnc3F)ccc1Oc1ncc(C3=CCOCC3)cc12 [compound 321]
> 7.00

Please look up its pIC50: COc1ccc2c(c1)[C@]1(COC(N)=N1)c1cc(NC(=O)COc3ccccc3)ccc1O2 [compound 374]
6.00 to 7.00

Request the reported pIC50 associated with CC(C)(C)/C=C/c1ccc2c(n1)[C@]1(COC(N)=N1)c1cc(-c3cccnc3)ccc1O2 [compound 398]
> 7.00

Need pIC50, item COc1ccc(-c2cnc3c(c2)[C@]2(COC(N)=N2)c2cc(-c4cccnc4F)ccc2O3)cn1 [compound 344]
> 7.00

Param item = CC(C)(C)C#Cc1cnc2c(c1)[C@]1(COC(N)=N1)c1cc(OCC(C)(C)C#N)ccc1O2 [compound 319] ; retrieve measured pIC50.
> 7.00
